Recorded OD450, one value per entry.
# testSystem: Peptide 1: Biotin-…-[Tyr(PC)]-acid
# Sequence (peptide, as listed by the source): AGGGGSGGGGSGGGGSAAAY
# testProtocol: scFv ELISA
parameter: OD450

INSERT INTO assay_data (binder, datavalue) VALUES
  ('PcOxP_DB03_A04 (scFv, V domains shown, scFv in periplasmic extract) VH: EVQLLESGGGLVQPGGSLRLSCAASGDTFSDFYMEWVRQAPGKGLEWVAASRNKANDYSTEYADSVKGRFTISRDNSKNTLYLQMNSLRAEDTAVYYCARDYYGSSYWYFDVWGQGTLVTVSS VL: DIVMTQSPDSLAVSLGERATINCEASESLYSSKHKVHYLAWYQQKPGQPPKLLIYGASNRYIGVPDRFSGSGSGTDFTLTISSLQAEDVAVYYCAQFYSYPLTFGGGTKVEIK', '0.19 OD450'),
  ('PcOxP_DB02_C10 (scFv, V domains shown, scFv in periplasmic extract) VH: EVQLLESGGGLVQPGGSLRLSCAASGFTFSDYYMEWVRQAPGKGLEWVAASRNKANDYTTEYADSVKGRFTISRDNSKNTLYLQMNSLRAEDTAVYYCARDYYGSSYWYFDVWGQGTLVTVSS VL: DIVMTQSPDSLAVSLGERATINCTASESLYSSKHKVHYLAWYQQKPGQPPKLLIYGASNRYIGVPDRFSGSGSGTDFTLTISSLQAEDVAVYYCAQFYEYPLTFGGGTKVEIK', '0.44 OD450'),
  ('PcOxP_DB03_D02 (scFv, V domains shown, scFv in periplasmic extract) VH: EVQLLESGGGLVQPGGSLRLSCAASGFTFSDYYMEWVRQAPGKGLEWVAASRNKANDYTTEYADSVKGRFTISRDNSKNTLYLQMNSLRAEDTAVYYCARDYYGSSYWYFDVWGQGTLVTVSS VL: DIVMTQSPDSLAVSLGERATINCTASESLYSSKHKVHYLAWYQQKPGQPPKLLIYGATNRYIGVPDRFSGSGSGTDFTLTISSLQAEDVAVYYCAEFYSYPLTFGGGTKVEIK', '0.67 OD450'),
  ('PcOxP_DB03_B01 (scFv, V domains shown, scFv in periplasmic extract) VH: EVQLLESGGGLVQPGGSLRLSCAASGFTFSSYYMEWVRQAPGKGLEWVAASRNTANDYTTEYADSVKGRFTISRDNSKNTLYLQMNSLRAEDTAVYYCARDYYGSSYWYFDVWGQGTLVTVSS VL: DIVMTQSPDSLAVSLGERATINCTASESLYSSKHKVHYLAWYQQKPGQPPKLLIYGASNREIGVPDRFSGSGSGTDFTLTISSLQAEDVAVYYCAQFYSYPLTFGGGTKVEIK', '0.21 OD450'),
  ('PcOxP_DB03_G03 (scFv, V domains shown, scFv in periplasmic extract) VH: EVQLLESGGGLVQPGGSLRLSCAASGFTSSDFYMEWVRQAPGKGLEWVAASRNKANDYTTEYADSVKGRFTISRDNSKNTLYLQMNSLRAEDTAVYYCARDYYGSSYWYFDVWGQGTLVTVSS VL: DIQMTQSPSSLSASVGDRVTITCTASQSISSSKHKVHYLAWYQQKPGKAPKLLIYGASNHYIGVPSRFSGSGSGTDFTLTISSLQPEDFATYYCAQFYSYPLTFGGGTKVEIK', '1.57 OD450'),
  ('PcOxP_DB02_A11 (scFv, V domains shown, scFv in periplasmic extract) VH: EVQLLESGGGLVQPGGSLRLSCAASGFTFSDGYMEWVRQAPGKGLEWVAASRNIANDYTTEYADSVKGRFTISRDNSKNTLYLQMNSLRAEDTAVYYCARDYYGSSYWYFDVWGQGTLVTVSS VL: DIQMTQSPSSLSASVGDRVTITCTASESLYSSKHKVHYLAWYQQKPGKAPKLLIYGASNRYHGVPSRFSGSGSGTDFTLTISSLQPEDFATYYCAQFYYYPLTFGGGTKVEIK', '0.64 OD450'),
  ('PcOxP_DB03_G10 (scFv, V domains shown, scFv in periplasmic extract) VH: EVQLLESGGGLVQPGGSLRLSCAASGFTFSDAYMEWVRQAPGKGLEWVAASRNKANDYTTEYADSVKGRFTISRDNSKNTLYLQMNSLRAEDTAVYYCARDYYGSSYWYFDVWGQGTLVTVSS VL: DIQMTQSPSSLSASVGDRVTITCTASESLYSSKHKVHYLAWYQQKPGKAPKLLIYGASNRQIGVPSRFSGSGSGTDFTLTISSLQPEDFATYYCAQFYTYPLTFGGGTKVEIK', '1.8 OD450'),
  ('PcOxP_DB03_F11 (scFv, V domains shown, scFv in periplasmic extract) VH: EVQLLESGGGLVQPGGSLRLSCAASGFTFSDYYMEWVRQAPGKGLEWVAASRNKANSYTTAYADSVKGRFTISRDNSKNTLYLQMNSLRAEDTAVYYCARDYYGSSYWYFDVWGQGTLVTVSS VL: DIVMTQSPDSLAVSLGERATINCTSSQSLLYSSNKKHYLAWYQQKPGQPPKLLIYGASNRYIGVPDRFSGSGSGTDFTLTISSLQAEDVAVYYCAQFYEYPLTFGGGTKVEIK', '1.47 OD450'),
  ('PcOxP_DB01_F07 (scFv, V domains shown, scFv in periplasmic extract) VH: EVQLLESGGGLVQPGGSLRLSCAASGDTFSDFYLEWVRQAPGKGLEWVAASRNKANGYTTEYADSVKGRFTISRDNSKNTLYLQMNSLRAEDTAVYYCARDYYHSSYWYFDVWGQGTLVTVSS VL: DIVMTQSPDSLAVSLGERATINCTASESLYSSKHKVHYLAWYQQKPGQPPKLLIYGASNRYIGVPDRFSGSGSGTDFTLTISSLQAEDVAVYYCAHFYSYPLTFGGGTKVEIK', '0.31 OD450'),
  ('PcOxP_DB02_H05 (scFv, V domains shown, scFv in periplasmic extract) VH: EVQLLESGGGLVQPGGSLRLSCAASGFTFSDFYMEWVRQAPGKGLEWVAASRNKANDYTTEYADSVKGRFTISRDNSKNTLYLQMNSLRAEDTAVYYCARDYYGSSYWYFDPWGQGTLVTVSS VL: DIVMTQSPDSLAVSLGERATINCTASESLYSSKHKVHYLAWYQQKPGQPPKLLIYGASNRYLGVPDRFSGSGSGTDFTLTISSLQAEDVAVYYCAQFYSYPLTFGGGTKVEIK', '0.2 OD450');
